Taken from paper PMC5540273.

Tested on: DRAK1;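 also: KINOMEscan kinase panel screen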
Construct: gene STK17A
ASSAY_SETUP: concentration: 1 μM, replicates: in singlicate; n = 1
ATTRIBUTE_MEASURED: %Inh (%)
Kindly answer with a numeric value in %, unit omitted.

Any idea what %Inh was measured for `Cc1ccc(O)cc1Nc1ccnc2ccc(C(C)(C)C)cc12` ? 12

Any idea what %Inh was measured for `COc1ccc(C)c(Nc2ccnc(Nc3ccc(-c4cnc[nH]4)cc3)n2)c1.Cl` ? 0

Any idea what %Inh was measured for Cc1ccc(-c2ccc3occ(-c4ccc(S(C)=O)cc4)c3c2)nn1 (stereo not drawn) ? 10

Any idea what %Inh was measured for `c1ccc(Oc2ccc(Nc3ccnc4cc(-c5ccc(CN6CCCCC6)o5)ccc34)cc2)nc1` ? 0

Any idea what %Inh was measured for `Cc1ccc(NC(=O)c2ccc(Cl)c(Cl)c2)cc1-c1ccc(C(=O)Nc2ccncc2)cc1` ? 0

Any idea what %Inh was measured for `Fc1cc(Cl)ccc1Nc1ccnc2cc(-c3ccc(CN4CCOCC4)o3)ccc12` ? 0

Any idea what %Inh was measured for `Cc1cc(-c2c(-c3ccc(F)cc3)ncn2CCCN2CCOCC2)nc(N)n1` ? 13

Any idea what %Inh was measured for `CNc1nccc(-c2ccc3c(N)n[nH]c3c2)n1` ? 99.2

Any idea what %Inh was measured for `COc1cccc(C2=C(Nc3cccc(O)c3)C(=O)NC2=O)c1` ? 0
